experiment: Cytotoxicity against human HUVEC cells assessed as cell viability at 9 to 150 uM measured after 48 hrs by MTT assay relative to control; assay type: cell-based; settings: read-out: Activity
property: viability at 48 h, up to 150 µM

Here is how some compounds turned out for viability at 48 h, up to 150 µM.
>  <compound>
CC(=O)Nc1cc([N+](=O)[O-])ccc1Br

>  <value.measured>
> 80%

$$$$
>  <compound>
O=C(Nc1ccccc1NC(=O)c1ccc([N+](=O)[O-])cc1)c1ccc([N+](=O)[O-])cc1

>  <value.measured>
> 80%

$$$$
>  <compound>
O=C(NCCNC(=O)c1ccc([N+](=O)[O-])cc1)c1ccc([N+](=O)[O-])cc1

>  <value.measured>
> 80%

$$$$
>  <compound>
CCN(C(C)=O)c1cc([N+](=O)[O-])cc([N+](=O)[O-])c1

>  <value.measured>
> 80%

$$$$
>  <compound>
O=C(NC1CCCCC1NC(=O)c1ccc([N+](=O)[O-])cc1)c1ccc([N+](=O)[O-])cc1 (stereo not drawn)

>  <value.measured>
> 80%

$$$$

# next compound below
Notebook: O=C(c1ccc([N+](=O)[O-])cc1)N1CCOCC1 , viability at 48 h, up to 150 µM read as > 80%
